Assay: self-splicing fitness, log relative to wild type (ln ratio); higher = more splicing; Tetrahymena group I intron in knt gene, E. coli kanamycin selection, DiMSum; sequences stand for … in CUCUCU…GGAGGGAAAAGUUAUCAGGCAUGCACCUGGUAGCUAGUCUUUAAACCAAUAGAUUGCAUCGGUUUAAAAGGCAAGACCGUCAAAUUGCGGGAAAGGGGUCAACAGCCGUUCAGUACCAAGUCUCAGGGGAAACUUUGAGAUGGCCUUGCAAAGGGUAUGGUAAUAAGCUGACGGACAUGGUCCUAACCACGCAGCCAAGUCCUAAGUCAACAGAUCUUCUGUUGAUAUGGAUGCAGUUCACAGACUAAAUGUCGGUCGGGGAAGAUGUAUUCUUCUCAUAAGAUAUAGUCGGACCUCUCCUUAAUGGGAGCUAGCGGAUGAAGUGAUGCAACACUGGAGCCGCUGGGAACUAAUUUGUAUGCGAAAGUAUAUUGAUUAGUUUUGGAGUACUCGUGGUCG;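 further: selection with 25 µg/mL kanamycin versus none on LB agar overnight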
Conditions: 30 °C
Record met whenever self-splicing fitness (ln) is at -2 or higher; record not met when lower.

Some solved entries appear below for comparison.
sequence-string	cat
GAUUAGCAAUAUUACGCCAG	not met
UCAUAGCAAUAUUACGGGAG	not met
CCUUAGCAAUAUUACGGCGA	not met

Can "ACGCAGCAAUAUUACGCUCG" be said to have self-splicing fitness (ln) at or above -2? not met

Also, "GCAGAGCAAUAUUACGGGAC" please. not met

Also, "UUUCAGCAAUAUUACGUUAA" please. met

Also, "UCUCAGCAAUAUUACGUAGA" please. met

Also, "AGUUAGCAAUAUUACGGUGU" please. not met

Also, "UUGAAGCAAUAUUACGAGAU" please. not met

---

Assay: self-splicing fitness, log relative to wild type (ln ratio); higher = more splicing; Tetrahymena group I intron in knt gene, E. coli kanamycin selection, DiMSum; sequences stand for … in CUCUCU…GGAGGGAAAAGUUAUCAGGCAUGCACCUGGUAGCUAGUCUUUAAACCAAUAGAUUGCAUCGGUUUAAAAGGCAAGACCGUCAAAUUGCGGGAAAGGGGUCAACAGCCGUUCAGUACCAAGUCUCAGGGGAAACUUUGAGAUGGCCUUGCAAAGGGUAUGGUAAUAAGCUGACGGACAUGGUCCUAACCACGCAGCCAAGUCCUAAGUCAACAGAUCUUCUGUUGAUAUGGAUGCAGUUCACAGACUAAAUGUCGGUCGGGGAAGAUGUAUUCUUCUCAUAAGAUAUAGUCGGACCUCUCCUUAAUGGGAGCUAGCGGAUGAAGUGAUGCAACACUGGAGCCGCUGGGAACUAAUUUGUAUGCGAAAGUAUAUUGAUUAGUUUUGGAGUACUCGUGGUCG
Conditions: 30 °C
Record 1 whenever self-splicing fitness (ln) is at -3 or higher; record 0 when lower.

Some solved entries appear below for comparison.
sequence-string	cat
AACUAGCAAUAUUACGAAUG	1
CACAAGCAAUAUUACGUAUA	1
GUACAGCAAUAUUACGGGCA	1
GGACAGCAAUAUUACGUAGG	1
ACUCAGCAAUAUUACGCGUC	0
CCCUAGCAAUAUUACGAAGG	0
CGCUAGCAAUAUUACGGAAG	1
GAACAGCAAUAUUACGGCAU	1
AUCGAGCAAUAUUACGGCGC	1
UCGCAGCAAUAUUACGCACU	1

Can "GAUCAGCAAUAUUACGUAAG" be said to have self-splicing fitness (ln) at or above -3? 1

Also, "UUAUAGCAAUAUUACGCGCU" please. 1

Also, "UGGUAGCAAUAUUACGGUGU" please. 0

Also, "GACGAGCAAUAUUACGCUUU" please. 0

Also, "UCGAAGCAAUAUUACGCGCG" please. 1

Also, "CCAAAGCAAUAUUACGCACG" please. 1

Also, "AUUAAGCAAUAUUACGCUGC" please. 0

---

Some sequences, each annotated with its measured self-splicing fitness (ln).
Assay: self-splicing fitness, log relative to wild type (ln ratio); higher = more splicing; Tetrahymena group I intron in knt gene, E. coli kanamycin selection, DiMSum; sequences stand for … in CUCUCU…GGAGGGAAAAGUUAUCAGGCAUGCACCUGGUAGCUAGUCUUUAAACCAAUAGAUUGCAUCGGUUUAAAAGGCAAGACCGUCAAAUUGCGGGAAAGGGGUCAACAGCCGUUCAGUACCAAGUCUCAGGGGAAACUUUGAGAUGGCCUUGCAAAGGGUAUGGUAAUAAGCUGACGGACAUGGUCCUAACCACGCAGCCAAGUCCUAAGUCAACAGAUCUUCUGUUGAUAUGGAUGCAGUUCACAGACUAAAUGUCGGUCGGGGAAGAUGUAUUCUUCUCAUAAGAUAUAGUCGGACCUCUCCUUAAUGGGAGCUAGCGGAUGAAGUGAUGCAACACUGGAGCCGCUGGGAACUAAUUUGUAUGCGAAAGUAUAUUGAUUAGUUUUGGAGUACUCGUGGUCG
Settings: 37 °C
Lab note: write the figure by itself, no unit.

Below, 5 sequences whose answers are already recorded.
sequence-string	self-splicing fitness (ln)
GUAUAGCAAUAUUACGACGA	-0.483
AUUAAGCAAUAUUACGGAGA	-3.25
UUAGAGCAAUAUUACGGAAA	-1.72
UAGAAGCAAUAUUACGUGAA	-1.5
UGAUAGCAAUAUUACGACUC	-1.46

Entry "AGCUAGCAAUAUUACGGACC" : reported self-splicing fitness (ln) = ? -0.00494

Also, "CACUAGCAAUAUUACGGUGU" please. -2.95

Also, "AUCAAGCAAUAUUACGCUAG" please. -1.03

---

Assay: self-splicing fitness, log relative to wild type (ln ratio); higher = more splicing; Tetrahymena group I intron in knt gene, E. coli kanamycin selection, DiMSum; sequences stand for … in CUCUCU…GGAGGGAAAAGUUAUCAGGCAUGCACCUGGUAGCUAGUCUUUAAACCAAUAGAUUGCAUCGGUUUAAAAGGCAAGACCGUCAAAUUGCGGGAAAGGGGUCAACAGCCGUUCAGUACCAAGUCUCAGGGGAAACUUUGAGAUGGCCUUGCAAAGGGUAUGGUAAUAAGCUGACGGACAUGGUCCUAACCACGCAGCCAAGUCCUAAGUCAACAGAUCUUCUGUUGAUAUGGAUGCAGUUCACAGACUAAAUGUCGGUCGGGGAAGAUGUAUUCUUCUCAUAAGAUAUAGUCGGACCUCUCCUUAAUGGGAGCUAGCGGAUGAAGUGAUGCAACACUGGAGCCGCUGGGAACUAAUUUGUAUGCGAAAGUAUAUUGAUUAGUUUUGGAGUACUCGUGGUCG
Details: 30 °C
Class key for self-splicing fitness (ln) values: low band: < -3; middle band: ≥ -3 and < -2; high band: ≥ -2

Some solved entries appear below for comparison.
sequence-string	cat
GAUCAGCAAUAUUACGUGAA	high band
UACUAGCAAUAUUACGCUAU	middle band
UCCCAGCAAUAUUACGCAUG	low band
CCGCAGCAAUAUUACGGGCU	low band
AUUUAGCAAUAUUACGAGUG	middle band
CGCGAGCAAUAUUACGACGU	middle band
AAGUAGCAAUAUUACGACAU	high band
AGUUAGCAAUAUUACGUGGG	low band
CCCCAGCAAUAUUACGUCGA	low band
GGCUAGCAAUAUUACGCCGC	low band

Which class holds "ACUCAGCAAUAUUACGUCCC" ? high band

---

Test: self-splicing fitness, log relative to wild type (ln ratio); higher = more splicing; Tetrahymena group I intron in knt gene, E. coli kanamycin selection, DiMSum; sequences stand for … in CUCUCU…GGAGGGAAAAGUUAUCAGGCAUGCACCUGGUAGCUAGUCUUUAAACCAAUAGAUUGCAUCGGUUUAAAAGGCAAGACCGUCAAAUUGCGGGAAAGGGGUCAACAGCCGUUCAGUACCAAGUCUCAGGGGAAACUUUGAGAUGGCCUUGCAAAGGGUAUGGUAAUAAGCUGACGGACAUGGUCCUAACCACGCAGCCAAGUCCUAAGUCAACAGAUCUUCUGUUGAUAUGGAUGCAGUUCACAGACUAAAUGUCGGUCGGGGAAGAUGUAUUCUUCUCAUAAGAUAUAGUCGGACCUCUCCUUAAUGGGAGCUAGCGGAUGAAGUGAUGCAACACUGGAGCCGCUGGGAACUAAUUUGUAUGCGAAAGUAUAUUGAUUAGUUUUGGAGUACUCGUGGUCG
Conditions: 30 °C
Record condition met whenever self-splicing fitness (ln) is at -2 or higher; record condition not met when lower.

sequence-string	cat
AAACAGCAAUAUUACGGGUG	condition not met
UGACAGCAAUAUUACGAGCU	condition not met
CUAGAGCAAUAUUACGACAC	condition not met
CUGAAGCAAUAUUACGGUUG	condition met
AGUCAGCAAUAUUACGGGAG	condition not met

Can "AGUUAGCAAUAUUACGCCCA" be said to have self-splicing fitness (ln) at or above -2? condition met

Also, "UGCUAGCAAUAUUACGCAUU" please. condition not met

Hello, the source for this data is the supplement of paper PMC7877785, in case you need it.
